Data provenance: ChEMBL document CHEMBL2331313

Provide the recorded IC50 for the entries that follow.
# Measurement target: Retinoic acid receptor RXR-alpha (Homo sapiens, UniProt P19793)
# Sequence (P19793 whole entry, the tested form may be a part): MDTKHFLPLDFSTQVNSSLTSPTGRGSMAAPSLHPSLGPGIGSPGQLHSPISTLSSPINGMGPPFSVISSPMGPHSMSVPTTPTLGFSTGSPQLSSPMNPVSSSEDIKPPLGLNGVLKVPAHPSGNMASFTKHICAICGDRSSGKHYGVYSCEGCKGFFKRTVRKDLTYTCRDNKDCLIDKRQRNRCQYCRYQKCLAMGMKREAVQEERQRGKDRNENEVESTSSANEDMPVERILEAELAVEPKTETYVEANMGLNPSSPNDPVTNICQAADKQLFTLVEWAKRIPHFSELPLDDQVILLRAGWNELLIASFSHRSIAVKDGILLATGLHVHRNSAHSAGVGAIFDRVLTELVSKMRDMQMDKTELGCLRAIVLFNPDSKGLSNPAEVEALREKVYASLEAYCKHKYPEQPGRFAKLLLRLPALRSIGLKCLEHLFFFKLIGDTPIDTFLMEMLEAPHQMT
# Experiment: Displacement of [3H]-9-cis-RA from human GST-tagged N-terminal truncated RXRalpha after 1 hr by liquid scintillation counting

Some entries whose results are on file:
>  <Compound structure string>
CC1=C(CC(=O)O)c2cc(Cl)ccc2/C1=C\c1ccc(C(C)C)cc1

>  <Experimental value>
≥ 100 µM

$$$$
>  <Compound structure string>
CC(=O)Nc1ccc(/C=C2/C(C)=C(CC(=O)O)c3cc(F)ccc32)cc1

>  <Experimental value>
≥ 100 µM

$$$$
>  <Compound structure string>
CC1=C(CC(=O)O)c2cc(C)ccc2/C1=C\c1ccc(C(C)C)cc1

>  <Experimental value>
≥ 100 µM

$$$$
>  <Compound structure string>
CC1=C(CC(N)=O)c2cc(F)ccc2/C1=C\c1ccc(C(C)C)cc1

>  <Experimental value>
≥ 100 µM

$$$$
>  <Compound structure string>
COc1cccc(/C=C2/C(C)=C(CC(=O)O)c3cc(F)ccc32)c1

>  <Experimental value>
≥ 100 µM

$$$$
>  <Compound structure string>
CC1=C(CC(=O)O)c2cc(F)ccc2/C1=C\c1ccc(C(F)(F)F)cc1

>  <Experimental value>
4.73 µM

$$$$

Okay, here is my list. What is IC50 for each of these?
1. CCC1=C(CC(=O)O)c2cc(F)ccc2/C1=C\c1ccc(C(C)C)cc1
2. CC1=C(CC(=O)O)c2cc(F)ccc2/C1=C\c1cccc(C#N)c1
3. CC1=C(CC(=O)O)c2cc(F)ccc2/C1=C\c1ccc(N(C)C)cc1
4. CC1=C(CC(=O)O)c2ccccc2/C1=C\c1ccc(C(C)C)cc1

// result
["6.29 µM", "≥ 100 µM", "≥ 100 µM", "≥ 100 µM"]
